test.system: C2orf82
test.method.notes: pooled miR-30 sensor sort-seq; sequence = guide strand; also: reference of the scale not given here
study.conditions: shRNA
assay.endpoint: sensor-assay potency score (higher = more potent)
# print the numeric value only

See these solved cases before continuing.
macromolecule.sequence: TCGTCTGTGAGCACCGCAGGGG
experimental.result: -0.778
//
macromolecule.sequence: ACATCGTCTGTGAGCACCGCAG
experimental.result: -1.82

Q: For the sequence shown here, "TTTCTCAGCGCGACGACCACGA" , give the reported sensor-assay potency score (higher = more potent).
Result: 0.0474

Q: What value of measured sensor-assay potency score (higher = more potent) is listed for "ACGAGCGCCAGCACCACGCAGG" ?
Result: -1.89

---

test.system: TCL1B
test.method.notes: pooled miR-30 sensor sort-seq; sequence = guide strand
study.conditions: shRNA
sensor-assay potency score (higher = more potent) values for the sequences below.
// return just the number, without any unit appended

Known results for sequences:
macromolecule.sequence: TTGAACCGCACGACCACAGTCA
experimental.result: -0.246
--
macromolecule.sequence: TTAATTAACCAGTACTGTGAGG
experimental.result: -0.714
--
macromolecule.sequence: TTCATATCTGCTGCCCTGGGAG
experimental.result: -0.879
--
macromolecule.sequence: TACATGAAGATCCTCACTGAGG
experimental.result: -0.791
--
macromolecule.sequence: TGCTCCATAGAGTCAATCTGGC
experimental.result: -0.928

Q: Requested read-out: sensor-assay potency score (higher = more potent). Entry: "ATGCTGGGTTCATATCTGCTGC"
Result: -1.39

---

test.system: WDFY1
test.method.notes: pooled miR-30 sensor sort-seq; sequence = guide strand
study.conditions: shRNA
# sensor-assay potency score (higher = more potent) annotations
# answer = number (no unit)

Look over these answered cases.
macromolecule.sequence: TTCTCTGCTAACATCCATGTTC
test.system: WDFY1
experimental.result: -0.775
//
macromolecule.sequence: TTTCTTCTCTTCCTCATCCTGG
test.system: WDFY1
experimental.result: -0.185
//
macromolecule.sequence: TTGAGGGTTGTGATGACTGAAC
test.system: WDFY1
experimental.result: -1.35

Attention now shifts to the item below.
Q: Query: sensor-assay potency score (higher = more potent); subject: "TTGATCGCCTCCTTAAACCTTT"
Result: -0.0804

---

test.system: FZD4
test.method.notes: pooled miR-30 sensor sort-seq; sequence = guide strand
study.conditions: shRNA
assay.endpoint: sensor-assay potency score (higher = more potent)

Q: Data request, read-out sensor-assay potency score (higher = more potent), for "TTTGCTATCTGAAAGACCCAGT"
Result: 0.327

Q: For "TCTTTCTAACTTGTCTGTCTTT" , what is its reported sensor-assay potency score (higher = more potent)?
Result: -0.962

Q: Which sensor-assay potency score (higher = more potent) value belongs to "TAACAGGCAATCACACACGTTG" ?
Result: -0.53

Q: Given "TATTATAGCACATACTGAGAAA" , state its recorded sensor-assay potency score (higher = more potent).
Result: -1.2

Q: Any idea what its sensor-assay potency score (higher = more potent) is? The sequence is "TACAGTACTGAGAACACCCCAA"
Result: 0.428

Q: Suppose we examine the sequence "TTTTAGTAGAATTTCCTCCAAA" ; what sensor-assay potency score (higher = more potent) value has been reported?
Result: -0.591
